Organism: Rattus norvegicus
EXPERIMENTAL_DETAILS: DrugMatrix - Regimen: Daily Repeat
Format: toxicity, organism-based, Sprague-Dawley
Design: regimen Daily Repeat, gender Male, age 6-8 weeks
COND: in vivo, po, 0 mg/kg, 72 h, tissue Blood, route oral GAVAGE, dose level Control, time 3 day, […]
PROPERTY: HEMATOCRIT (%)

>>> result_number("CC(=O)Nc1nnc(S(N)(=O)=O)s1 [ACETAZOLAMIDE]")
35.4
>>> result_number("CC(CCc1ccc(O)cc1)NCCc1ccc(O)c(O)c1 (stereo not given)")
46.77
>>> result_number("CCn1cc(C(=O)O)c(=O)c2cc(F)c(N3CCNCC3)nc21")
33.67
>>> result_number("CC[C@H](C)C(=O)O[C@H]1C[C@H](O)C=C2C=C[C@H](C)[C@H](CC[C@@H](O)C[C@@H](O)CC(=O)O)[C@H]21")
32.32
>>> result_number("CN(CCOc1ccc(CC2SC(=O)NC2=O)cc1)c1ccccn1 (stereo not given)")
32.32
